These entries and their values trace back to patent US20160011195A1.

# assayed.system: PLK1 PBD protein (residues 367-603) (human), P53350
# Sequence (P53350 367-603 limits assumed): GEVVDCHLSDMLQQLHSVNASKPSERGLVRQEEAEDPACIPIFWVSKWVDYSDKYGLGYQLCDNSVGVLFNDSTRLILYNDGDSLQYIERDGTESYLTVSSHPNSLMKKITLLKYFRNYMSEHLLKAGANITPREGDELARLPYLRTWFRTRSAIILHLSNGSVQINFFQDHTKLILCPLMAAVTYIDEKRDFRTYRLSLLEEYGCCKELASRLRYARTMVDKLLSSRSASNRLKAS
# assay.explanation: competitive FP, displacement of fluorescein tracer SEQ ID NO: 7 from PLK1 PBD (367-603)
Readings of IC50 for the listed binders

# binder, IC50, µM
data = [
    ("STPNGL (modifications not checked) [Sample No. 5601, fragment ligated inhibitor]", 400),
    ("STPNGL (modifications not checked) [Sample No. 5600, fragment ligated inhibitor]", 550),
    ("STPNGL (modifications not checked) [Sample No. 5754, fragment ligated inhibitor (4-methoxybenzoic acid)]", 125),
    ("STPNGL (modifications not checked) [Sample No. 5604, fragment ligated inhibitor]", 300),
    ("STPNGL (modifications not checked) [Sample No. 5791, fragment ligated inhibitor (4-(Methylthio) benzoic acid)]", 18.5),
    ("LLCSEPNGL (modifications not checked) [… (sample no. 345)]", 350),
    ("STPNGL (modifications not checked) [Sample No. 5597, fragment ligated inhibitor]", 500),
    ("STPNGL (modifications not checked) [Sample No. 5593, fragment ligated inhibitor]", 380),
    ("STPNGL (modifications not checked) [Sample No. 5786, fragment ligated inhibitor (4-ethoxybenzoic acid)]", 64.7),
    ("STPNGL (modifications not checked) [Sample No. 5792, fragment ligated inhibitor (4-(Methylamino) benzoic acid)]", 31.2),
    ("STPNGL (modifications not checked) [Sample No. 5830, fragment ligated inhibitor (4-(Propylamino) benzoic acid)]", 16.5),
    ("STPNGL (modifications not checked) [Sample No. 5753, fragment ligated inhibitor]", 104),
    ("PLHSEA (modifications not checked) [Ac-PLHSEA (sample no. 5744)]", 500),
    ("STPNGL (modifications not checked) [Sample No. 5826, fragment ligated inhibitor (4-propylbenzoic acid)]", 10.8),
    ("STPNGL (modifications not checked) [Sample No. 5599, fragment ligated inhibitor]", 600),
    ("STPNGL (modifications not checked) [Sample No. 5595, fragment ligated inhibitor]", 475),
    ("STPNGL (modifications not checked) [Sample No. 5591, fragment ligated inhibitor]", 375),
]
